tested on: HepG2; experiment: Cytotoxicity against human HepG2 cells after 48 hrs by MTT assay; type: functional, cell-based; conditions: HepG2, 48 h
Assignment: determine reported IC50 for the given compounds.

Prompt: Give HepG2 IC50 for CN1CCN(c2ccnc(Nc3ccc(Cl)cc3)n2)CC1
Completion: > 200 µM

Prompt: Query for HepG2: what IC50 does the record show for CS(=O)(=O)N1CCC(Nc2ncc(Cl)c(NCCc3ccccc3)n2)CC1 ?
Completion: 123 µM

Prompt: Provide value of IC50 for this record tested with HepG2: CS(=O)(=O)N1CCC(Nc2ccnc(Nc3ccc(Cl)cc3)n2)CC1
Completion: 92.6 µM

Prompt: Give recorded IC50 with HepG2 for the following compound: COc1cccc(Nc2nc(NC3CCN(S(C)(=O)=O)CC3)ncc2Cl)c1
Completion: > 200 µM

Prompt: Look up IC50 with HepG2 for this compound: COc1ccccc1CCNc1nccc(N2CCN(C)CC2)n1
Completion: > 200 µM

Prompt: // map COc1ccc(Nc2nc(NC3CCN(S(C)(=O)=O)CC3)ncc2Cl)cc1 to recorded IC50 (system: HepG2)
Completion: > 200 µM

###

tested on: MDA-MB-231; test: Cytotoxicity against human MDA-MB-231 cells after 48 hrs by MTT assay; type: functional, cell-based; conditions: MDA-MB-231, 48 h
Consider the following compounds; for each one, report its log10 of IC50.
Recorded IC50 (log10, µM)

Prompt: Recorded log10 of IC50 for COc1cccc(Nc2nccc(NC3CCN(S(C)(=O)=O)CC3)n2)c1 , please?
Completion: 2.04

Prompt: // log10 of IC50 lookup, key: COc1ccc(Nc2nccc(NC3CCN(S(C)(=O)=O)CC3)n2)cc1
Completion: 1.76

Prompt: Data request, read-out log10 of IC50, for COc1ccc(CNc2nccc(NC3CCN(S(C)(=O)=O)CC3)n2)cc1
Completion: 0.87

Prompt: # lookup: log10 of IC50 of CS(=O)(=O)N1CCC(Nc2ccnc(Nc3ccc(Cl)cc3)n2)CC1
Completion: 2.01

Prompt: Look at this compound and give its reported log10 of IC50. COc1ccc(CNc2nc(NC3CCN(S(C)(=O)=O)CC3)ncc2Cl)cc1
Completion: 1.53

Prompt: Sample CS(=O)(=O)N1CCC(Nc2ncc(Cl)c(NCc3ccccc3)n2)CC1 — what was its log10 of IC50?
Completion: 1.07

Prompt: Which log10 of IC50 reading was recorded for the compound CS(=O)(=O)N1CCC(Nc2nccc(NCc3ccccc3)n2)CC1 ?
Completion: 1.78

Prompt: Report log10 of IC50 for COc1ccc(CCNc2nccc(NC3CCN(S(C)(=O)=O)CC3)n2)cc1 please.
Completion: 1.20

Prompt: Fill blank: measured log10 of IC50 of the compound COc1cccc(Nc2ccnc(NC3CCN(S(C)(=O)=O)CC3)n2)c1 is ____.
Completion: 1.47

Prompt: Returns the measured log10 of IC50 for the input compound. Input: O=c1[nH]cc(F)c(=O)[nH]1
Completion: 1.39

Prompt: # log10 of IC50 lookup, item COc1ccc(CNc2ccnc(NC3CCN(S(C)(=O)=O)CC3)n2)cc1
Completion: 1.53

###

Please respond with reported pIC50 for every item in the list.
system: HepG2; test: Cytotoxicity against human HepG2 cells after 48 hrs by MTT assay; format: functional, cell-based; settings: HepG2, 48 h
Please treat pIC50 as minus the base-10 logarithm of the molar concentration.

Prompt: So what does the record say about pIC50 for COc1cccc(Nc2ccnc(NC3CCN(S(C)(=O)=O)CC3)n2)c1 ?
Completion: 4.06

Prompt: Name the reported pIC50 value associated with the molecule COc1ccc(CNc2nccc(NC3CCN(S(C)(=O)=O)CC3)n2)cc1
Completion: 4.69

Prompt: Suppose we examine the molecule CS(=O)(=O)N1CCC(Nc2nccc(NCc3ccccc3)n2)CC1 ; what pIC50 value has been reported?
Completion: 3.83

Prompt: Give its pIC50 value. Item: COc1ccc(CCNc2nccc(NC3CCN(S(C)(=O)=O)CC3)n2)cc1
Completion: 4.70

Prompt: Item under review: CS(=O)(=O)N1CCC(Nc2nccc(Nc3ccc(Cl)cc3)n2)CC1 . Reported pIC50?
Completion: 4.10

Prompt: What value of pIC50 has been reported for the following molecule? COc1ccc(CNc2ccnc(NC3CCN(S(C)(=O)=O)CC3)n2)cc1
Completion: 4.29

Prompt: Param item = COc1cccc(Nc2nccc(NC3CCN(S(C)(=O)=O)CC3)n2)c1 ; retrieve measured pIC50.
Completion: 4.17

Prompt: Request the reported pIC50 associated with COc1ccc(Nc2nccc(NC3CCN(S(C)(=O)=O)CC3)n2)cc1
Completion: 4.06

###

Please provide measured IC50 for the entries that follow.
tested on: MDA-MB-231; assay: Cytotoxicity against human MDA-MB-231 cells after 48 hrs by MTT assay; assay type: functional, cell-based; conditions: MDA-MB-231, 48 h

Prompt: Reported IC50, compound CS(=O)(=O)N1CCC(Nc2ncc(Cl)c(Nc3ccccc3)n2)CC1 : ____
Completion: > 200 µM

Prompt: What value of IC50 has been reported for the following compound? CN1CCN(c2ccnc(Nc3ccc(Cl)cc3)n2)CC1
Completion: > 200 µM

Prompt: Quick check: IC50 of CS(=O)(=O)N1CCC(Nc2ncc(Cl)c(NCCc3ccc(Cl)cc3)n2)CC1 ?
Completion: > 200 µM

Prompt: I am curious: what IC50 value has been reported for COc1ccccc1CCNc1nccc(N2CCN(C)CC2)n1 ?
Completion: > 200 µM

Prompt: Which IC50 reading was recorded for the compound CN1CCN(c2nccc(NCc3ccccc3)n2)CC1 ?
Completion: > 200 µM

Prompt: What measured IC50 goes with CS(=O)(=O)N1CCC(Nc2ncc(Cl)c(NCCc3ccccc3)n2)CC1 ?
Completion: > 200 µM

Prompt: Which IC50 is reported for this compound? COc1ccc(Nc2nc(NC3CCN(S(C)(=O)=O)CC3)ncc2Cl)cc1
Completion: > 200 µM

Prompt: Query: IC50; subject: COc1ccc(CNc2ccnc(N3CCN(C)CC3)n2)cc1
Completion: > 200 µM

Prompt: Query (compound): COc1ccc(CCNc2nc(NC3CCN(S(C)(=O)=O)CC3)ncc2Cl)cc1 ; field requested: IC50
Completion: > 200 µM

Prompt: Consider the compound CS(=O)(=O)N1CCC(Nc2nccc(Nc3ccc(Cl)cc3)n2)CC1 and give its measured IC50.
Completion: > 200 µM

Prompt: Tell me the measured IC50 of COc1ccc(Nc2nccc(N3CCN(C)CC3)n2)cc1 , please.
Completion: > 200 µM

Prompt: Report IC50 for COc1cccc(Nc2nc(NC3CCN(S(C)(=O)=O)CC3)ncc2Cl)c1 please.
Completion: > 200 µM

Prompt: For the compound shown here, COc1cccc(Nc2ccnc(N3CCN(C)CC3)n2)c1 , give the reported IC50.
Completion: > 200 µM

Prompt: Please report the recorded IC50 for CS(=O)(=O)N1CCC(Nc2ncc(Cl)c(Nc3ccc(Cl)cc3)n2)CC1 .
Completion: > 200 µM
